tested on: B. Anthracis; assay: microbe, parasite or virus in culture; format: cell-based; conditions: Bacillus anthracis, 3 μM; read-out: B. Anthracis 3 μM (growth inhibition)

{"compound": "O=C(O)C(Cc1ccccc1)N1C(=O)/C(=C\\c2ccc(-c3ccc(Cl)c(Cl)c3)o2)NC1=S (stereo not shown) [Cmpd 42]", "inhibition at 3 µM": "96.2%"}
{"compound": "O=C1NC(=S)N(c2cccc(Cl)c2)C(=O)/C1=C/c1ccc(-c2cc(C(=O)O)ccc2Cl)o1 [Cmpd 25]", "inhibition at 3 µM": "-10.8%"}
{"compound": "O=C(O)C(Cc1ccccc1)N1C(=O)/C(=C\\c2ccc(-c3ccc(Br)cc3)o2)NC1=S (stereo not shown) [Cmpd 39]", "inhibition at 3 µM": "72.6%"}
{"compound": "NC(=O)C(Cc1ccccc1)N1C(=O)/C(=C\\c2ccc(-c3ccc(Cl)c(Cl)c3)o2)NC1=S (stereo not shown) [Cmpd 54]", "inhibition at 3 µM": "20.6%"}
{"compound": "CCC(C(=O)NS(C)(=O)=O)N1C(=O)/C(=C\\c2ccc(-c3ccc(Cl)c(Cl)c3)o2)NC1=S (stereo not shown) [Cmpd 59]", "inhibition at 3 µM": "6.4%"}
{"compound": "O=C1NC(=S)NC(=O)C1=Cc1ccc(Br)cc1 [Cmpd 16]", "inhibition at 3 µM": "0%"}
{"compound": "O=C(O)CC(C(=O)O)N1C(=O)/C(=C2/C(=O)Nc3ccc(Br)cc32)SC1=S (stereo not shown) [Cmpd 21]", "inhibition at 3 µM": "15.8%"}
{"compound": "N#CNC(=O)C(Cc1ccccc1)N1C(=O)/C(=C\\c2ccc(-c3ccc(Cl)c(Cl)c3)o2)NC1=S (stereo not shown) [Cmpd 69]", "inhibition at 3 µM": "0.13%"}
{"compound": "O=C(O)[C@H](Cc1ccccc1)N1C(=O)/C(=C\\c2ccc(-c3cc(Cl)cc(Cl)c3)o2)NC1=S [Cmpd 51]", "inhibition at 3 µM": "-0.16%"}
{"compound": "O=C(O)C(Cc1ccccc1)N1C(=O)/C(=C\\c2ccc(-c3ccc(Cl)c(Cl)c3)s2)NC1=S (stereo not shown) [Cmpd 50]", "inhibition at 3 µM": "1.03%"}
{"compound": "O=C(O)C(Cc1ccccc1)N1C(=O)/C(=C\\c2ccc(-c3ncc(Cl)cc3Cl)o2)NC1=S (stereo not shown) [Cmpd 72]", "inhibition at 3 µM": "-13.5%"}
{"compound": "O=C(O)C(Cc1ccccc1)N1C(=O)/C(=C\\c2ccc(-c3ccc(I)cc3)o2)NC1=S (stereo not shown) [Cmpd 45]", "inhibition at 3 µM": "49.2%"}
{"compound": "COc1ccc(-c2ccc(/C=C3/NC(=S)N([C@@H](Cc4ccccc4)C(=O)O)C3=O)o2)cc1Cl [Cmpd 52]", "inhibition at 3 µM": "-5.68%"}
{"compound": "CS(=O)(=O)NC(=O)C(Cc1ccccc1)N1C(=O)/C(=C\\c2ccc(-c3ccc(Cl)c(Cl)c3)o2)NC1=S (stereo not shown) [Cmpd 57]", "inhibition at 3 µM": "45.2%"}
{"compound": "O=C(O)C(Cc1ccccc1)N1C(=O)/C(=C\\c2ccc(-c3ccc(Br)c(Cl)c3)o2)NC1=S (stereo not shown) [Cmpd 40]", "inhibition at 3 µM": "98.1%"}
{"compound": "O=C1NC(=S)N(c2ccc(Cl)cc2)C(=O)/C1=C/c1ccc(-c2ccccc2C(=O)O)o1 [Cmpd 26]", "inhibition at 3 µM": "2.32%"}
